Molecular target: CDK9/Cyclin T1 (Homo sapiens (Human), UniProt P50750)
Sequence (P50750 whole entry): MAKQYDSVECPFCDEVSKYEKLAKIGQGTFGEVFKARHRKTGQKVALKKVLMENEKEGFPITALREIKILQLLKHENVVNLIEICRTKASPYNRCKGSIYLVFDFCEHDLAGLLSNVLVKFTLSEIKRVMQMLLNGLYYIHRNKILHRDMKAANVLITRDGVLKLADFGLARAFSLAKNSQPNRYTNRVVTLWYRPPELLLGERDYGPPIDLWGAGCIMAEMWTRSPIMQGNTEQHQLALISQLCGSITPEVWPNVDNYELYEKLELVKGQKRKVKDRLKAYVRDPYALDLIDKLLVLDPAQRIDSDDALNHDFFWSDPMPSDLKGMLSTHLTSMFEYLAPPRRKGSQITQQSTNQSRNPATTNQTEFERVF
Sequence (O60563 whole entry partner): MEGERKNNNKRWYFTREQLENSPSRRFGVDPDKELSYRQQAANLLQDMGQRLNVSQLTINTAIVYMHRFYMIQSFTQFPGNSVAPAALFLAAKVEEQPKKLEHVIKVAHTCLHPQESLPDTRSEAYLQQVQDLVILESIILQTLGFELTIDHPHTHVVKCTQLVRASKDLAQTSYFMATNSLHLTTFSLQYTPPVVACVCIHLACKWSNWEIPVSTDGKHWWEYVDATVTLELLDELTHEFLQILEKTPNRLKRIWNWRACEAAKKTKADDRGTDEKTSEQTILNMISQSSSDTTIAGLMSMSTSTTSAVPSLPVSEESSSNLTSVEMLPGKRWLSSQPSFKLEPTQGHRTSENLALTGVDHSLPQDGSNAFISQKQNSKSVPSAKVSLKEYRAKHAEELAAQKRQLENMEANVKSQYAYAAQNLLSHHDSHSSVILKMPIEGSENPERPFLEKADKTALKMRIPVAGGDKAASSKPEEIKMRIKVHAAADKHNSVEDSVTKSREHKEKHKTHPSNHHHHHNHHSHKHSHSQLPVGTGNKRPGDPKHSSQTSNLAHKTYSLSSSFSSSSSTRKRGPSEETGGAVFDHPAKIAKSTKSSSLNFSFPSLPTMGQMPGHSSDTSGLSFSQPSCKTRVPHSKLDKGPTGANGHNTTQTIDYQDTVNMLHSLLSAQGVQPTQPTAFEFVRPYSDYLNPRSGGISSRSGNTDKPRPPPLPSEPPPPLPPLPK
Assay: CDK9 enzyme assay (LANCE ULight TR-FRET kinase assay)
Details: 1000 μM ATP, 100 nM ULight MBP, kinase reaction 1 hour
assayMetric: IC50 (nM)
Respond numerically; units are nM and should not be typed.

compound | resultUnits | IC50
CN1Cc2c(C3=CCC(N[C@@H](Cc4ccc(O)cc4)C(=O)O)CC3)[nH]c3nccc(c23)-c2cc(F)ccc21 (stereo partly shown) | nM | 81
OCC(O)CN1CC=C(c2[nH]c3nccc4c3c2COc2ccc(F)cc2-4)CC1 (stereo not shown) | nM | 130
CCOC(=O)C1c2c(C3=CCNCC3)[nH]c3nccc(c23)-c2cc(F)ccc2N1C (stereo not shown) | nM | 150

Shift focus to the following entry.
Determine its reported IC50: CN1Cc2c(C3=CCN([C@H]4CC[C@@H](CC(=O)O)CC4)CC3)[nH]c3ncc(F)c(c23)-c2ccccc21
71
